test system: LU99A; experiment: relative viability (nuclei count vs DMSO), 5 days (fraction); higher = more cells survive; settings: first compound 0.4 µM
Reported relative viability values for the following compounds.
I only need the number, thanks.

Clc1ccc(Nc2nnc(Cc3ccncc3)c3ccccc23)cc1 [Vatalanib] + N=C(N)NC(=N)NCCc1ccccc1 [Phenformin] (partner 250 µM); 1.04
COc1cc(N2CCC(C(N)=O)CC2)ccc1Nc1nc(N)c(Cl)c(Nc2ccccc2S(=O)(=O)C(C)C)n1 [HG-5-88-01] + NC(=O)Nc1cc(-c2cccc(F)c2)sc1C(=O)N[C@H]1CCCNC1 [AZD7762] (partner 0.2 µM); 0.369
COc1cc(N2CCC(C(N)=O)CC2)ccc1Nc1nc(N)c(Cl)c(Nc2ccccc2S(=O)(=O)C(C)C)n1 [HG-5-88-01] + CS(=O)(=O)CCNCc1ccc(-c2ccc3ncnc(Nc4ccc(OCc5cccc(F)c5)c(Cl)c4)c3c2)o1 [Lapatinib] (partner 2 µM); 1

Consider the record given below.
Entry COc1cc(N2CCC(C(N)=O)CC2)ccc1Nc1nc(N)c(Cl)c(Nc2ccccc2S(=O)(=O)C(C)C)n1 [HG-5-88-01] + CCNC(=O)c1noc(-c2cc(C(C)C)c(O)cc2O)c1-c1ccc(CN2CCOCC2)cc1 [Luminespib] (partner 0.01 µM) : relative viability on LU99A = 0.288
